Data provenance is ChEMBL document CHEMBL1151757.

Test system: Thalamus
Assay: Drug uptake in anesthetized cynomolgus monkey brain thalamus after 3.5 mins postinjection
Type: ADME, organism-based, Macaca fascicularis
Design: unit not given here
Conditions: in vivo
This section presents compounds with their documented Drug uptake values.
Write the value as a bare number.

Some solved cases for reference:
compound | measured_number
O=C(OCC[18F])C1C2CCC(CC1c1cccc(/C=C\Br)c1)N2 (stereo not given) | 0.67
O=C(OCC[18F])C1C2CCC(CC1c1ccc(/C=C\I)cc1)N2 (stereo not given) | 0.76
O=C(OCCC[18F])C1C2CCC(CC1c1cccc(/C=C\Br)c1)N2 (stereo not given) | 1.89
O=C(OCC[18F])C1C2CCC(CC1c1cccc(/C=C\I)c1)N2 (stereo not given) | 0.96

IN: Requested read-out Drug uptake, target or system Thalamus, entry O=C(OCCC[18F])C1C2CCC(CC1c1cccc(/C=C\I)c1)N2 (stereo not given)
OUT: 1.44

====

Experiment: Drug uptake in anesthetized cynomolgus monkey brain cerebellum after 215 mins postinjection
Type: ADME, organism-based, Macaca fascicularis
Settings: in vivo
// reported Drug uptake for each item listed
The answer should be a number; do not append a unit.

molecule | Drug uptake
O=C(OCC[18F])C1C2CCC(CC1c1cccc(/C=C\I)c1)N2 (stereo not given) | 1.4
O=C(OCCC[18F])C1C2CCC(CC1c1cccc(/C=C\I)c1)N2 (stereo not given) | 2.06
O=C(OCC[18F])C1C2CCC(CC1c1ccc(/C=C\I)cc1)N2 (stereo not given) | 1.18

IN: What Drug uptake value was documented for this molecule, O=C(OCC[18F])C1C2CCC(CC1c1cccc(/C=C\Br)c1)N2 (stereo not given) ?
OUT: 1.78

IN: Data request, read-out Drug uptake, for O=C(OCCC[18F])C1C2CCC(CC1c1cccc(/C=C\Br)c1)N2 (stereo not given)
OUT: 2.1

====

Test: Ratio of drug uptake in caudate to cerebellum in anesthetized cynomolgus monkey after 225 mins postinjection
Format: ADME, organism-based, Macaca fascicularis
Conditions: in vivo, 3.75 h
reported_property: Ratio
Please give only the number in your answer, with no unit.

Known results for compounds:
compound | Ratio
O=C(OCC[18F])C1C2CCC(CC1c1ccc(/C=C\I)cc1)N2 (centres undefined) | 2.5
O=C(OCCC[18F])C1C2CCC(CC1c1cccc(/C=C\Br)c1)N2 (centres undefined) | 1.7
O=C(OCCC[18F])C1C2CCC(CC1c1cccc(/C=C\I)c1)N2 (centres undefined) | 1.3

Now for the compound whose Ratio we want.
IN: Entry O=C(OCC[18F])C1C2CCC(CC1c1cccc(/C=C\Br)c1)N2 (centres undefined) : reported Ratio = ?
OUT: 1.8

====

// reported Drug uptake for each item listed
System: Thalamus
Test: Drug uptake in anesthetized cynomolgus monkey brain thalamus after 15.5 mins postinjection
Assay type: ADME, organism-based, Macaca fascicularis
Parameters: unit not given here
Details: in vivo
# print the numeric value only

compound | measured_on | Drug uptake
O=C(OCCC[18F])C1C2CCC(CC1c1cccc(/C=C\I)c1)N2 (stereo not given) | Thalamus | 4.11

IN: Query for Thalamus: what Drug uptake does the record show for O=C(OCC[18F])C1C2CCC(CC1c1cccc(/C=C\I)c1)N2 (stereo not given) ?
OUT: 3.48

IN: Please state recorded Drug uptake (tested on Thalamus) of O=C(OCC[18F])C1C2CCC(CC1c1ccc(/C=C\I)cc1)N2 (stereo not given)
OUT: 2.54

IN: Fill in the recorded Drug uptake for this compound, with Thalamus as test system: O=C(OCCC[18F])C1C2CCC(CC1c1cccc(/C=C\Br)c1)N2 (stereo not given)
OUT: 4.64

IN: Recorded Drug uptake for O=C(OCC[18F])C1C2CCC(CC1c1cccc(/C=C\Br)c1)N2 (stereo not given) with Thalamus, please?
OUT: 3.29
